- procedure.details: Plasma concentration in C215 transfected MC38 cells implanted C57BL/6 mouse at 1 mg/kg, iv dosed as cassette formulation and measured at 7 hrs after post dose by LC-MS analysis
- Assay type: ADME, organism-based
readout.kind: concentration at 7 h (nM)

(I) COc1cc(Cl)ncc1NS(=O)(=O)c1cc(Cl)sc1Cl
(II) COc1nc(Br)cnc1NS(=O)(=O)Cc1ccc(Cl)c(Cl)c1
(III) COc1cc(Cl)cnc1NS(=O)(=O)Cc1cc(Cl)cc(Cl)c1
-- ask Sort by concentration at 7 h with smallest numbers at the start of the list. List each label, following the requested order.
-- reply III, I, II
(III: 150 nM, I: 2500 nM, II: 6200 nM)

All figures here come from ChEMBL document CHEMBL4418490.
